- TARGET OF ASSAY: Asu-ACR-16 (Ascaris suum, UniProt F1KYJ9)
- Construct: Full-length Asu-acr-16 cDNA was amplified with the forward primer; expressed in transfected cells; host or cells: Xenopus laevis oocytes injected with Asu-acr-16 cRNA plus Asu-ric-3 cRNA
- TEST NAME: cell-based
- Assay type: cell-based
Counter-ions that a name gives are not always drawn.
RECORDED ENDPOINT: pIC50
// pIC50 is dimensionless: -log10 of concentration (M)

Query block: Look up pIC50: CC(C)(C)[C@]1(O)CCN2C[C@H]3c4ccccc4CCc4cccc(c43)[C@@H]2C1 [(+)-butaclamol Cl, (+)-butaclamol hydrochloride]
Result block: 5.01

====

- TARGET OF ASSAY: Asu-ACR-16 (Ascaris suum, UniProt F1KYJ9)
- Construct: Full-length Asu-acr-16 cDNA was amplified with the forward primer; expressed in transfected cells; host or cells: Xenopus laevis oocytes injected with Asu-acr-16 cRNA plus Asu-ric-3 cRNA
- Sequence (F1KYJ9 1-504): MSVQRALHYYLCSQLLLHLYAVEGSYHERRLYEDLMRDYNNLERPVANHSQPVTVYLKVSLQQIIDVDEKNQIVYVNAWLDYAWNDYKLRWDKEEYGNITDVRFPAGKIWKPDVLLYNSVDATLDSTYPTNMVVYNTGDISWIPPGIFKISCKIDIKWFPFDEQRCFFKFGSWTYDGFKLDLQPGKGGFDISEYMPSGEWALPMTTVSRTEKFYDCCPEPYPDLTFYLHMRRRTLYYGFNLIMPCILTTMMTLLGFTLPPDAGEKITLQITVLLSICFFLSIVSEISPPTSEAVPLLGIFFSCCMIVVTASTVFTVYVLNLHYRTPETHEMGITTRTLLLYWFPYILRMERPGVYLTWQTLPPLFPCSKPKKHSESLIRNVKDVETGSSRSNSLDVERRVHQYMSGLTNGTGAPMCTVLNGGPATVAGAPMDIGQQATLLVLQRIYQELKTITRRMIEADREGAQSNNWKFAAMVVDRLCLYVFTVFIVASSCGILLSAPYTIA
- TEST NAME: cell-based
- Type: cell-based
- PARTICULARS: inhibition of currents elicited by 100 μM ach; oocytes held at −60 mV; mean ± S.E.M.; read-out: IC50
Hi there, I'd appreciate the recorded IC50 for every entry that follows.

Query block: Can you share its IC50? I mean this molecule: `O=C(OCC1c2ccccc2-c2ccccc21)N1CCC(C(=O)O)(c2ccc3ccccc3c2)CC1`
Result block: 16.7 µM

Query block: Lookup `O=C(OCC1c2ccccc2-c2ccccc21)N1CCC(C(=O)O)(c2cccc3ccccc23)CC1`
Result block: 10 µM
